biological target: UniProtKB P20272; experiment: rCB1 competition-equilibrium binding with [3H]CP-55,940, rat brain membranes
Attribute: pKi
Scale explanation: pKi corresponds to minus log10 of a concentration expressed in moles per litre.

{"columns": ["compound", "experimental target", "pKi"],
 "data": [
  ["CCCCCCC1(c2cc(O)c3c(c2)OC(C)(C)[C@@H]2CC=C(C)C[C@@H]32)CC(=O)O1 (stereo partly drawn) [Compound 1.23]", "UniProtKB P20272", 7.80]
]}

Quote pKi reported for CC1=CC[C@@H]2[C@@H](C1)c1c(O)cc(C(C)(C)C(=O)OCCCN3CCOCC3)cc1OC2(C)C [Compound 1.25] please. 7.82
